Recorded koff for the following binders
Molecular target: T1, human SIRP-α v2 (human)
T1 construct: also called Human v2; Human V2
T1 sequence (chain, as listed by the source limits assumed): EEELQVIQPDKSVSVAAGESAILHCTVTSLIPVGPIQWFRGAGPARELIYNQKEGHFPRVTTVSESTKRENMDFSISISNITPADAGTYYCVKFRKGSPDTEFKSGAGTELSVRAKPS
Assay: SPR
Quantity kind: koff (s⁻¹)

INSERT INTO results (binder, measurement) VALUES
  ('antibody 21 (antibody, V domains shown, also called AB21; S21) VH: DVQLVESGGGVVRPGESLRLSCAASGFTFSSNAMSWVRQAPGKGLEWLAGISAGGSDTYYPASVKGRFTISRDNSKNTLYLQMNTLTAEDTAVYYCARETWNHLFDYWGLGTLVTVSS VL: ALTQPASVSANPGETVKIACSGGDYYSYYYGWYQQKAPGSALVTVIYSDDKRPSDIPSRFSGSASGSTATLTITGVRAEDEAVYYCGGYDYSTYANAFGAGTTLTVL', 0.00192),
  ('antibody 27 (antibody, V domains shown, also called AB27; S27) VH: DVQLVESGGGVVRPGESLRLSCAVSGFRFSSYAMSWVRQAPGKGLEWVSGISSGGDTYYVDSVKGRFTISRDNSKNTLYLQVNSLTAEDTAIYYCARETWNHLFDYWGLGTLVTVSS VL: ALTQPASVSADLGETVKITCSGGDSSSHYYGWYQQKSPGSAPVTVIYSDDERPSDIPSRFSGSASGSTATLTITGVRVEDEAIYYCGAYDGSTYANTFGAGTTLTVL', 0.000579),
  ('Hum3/AB25_HC_wt (antibody, V domains shown) VH: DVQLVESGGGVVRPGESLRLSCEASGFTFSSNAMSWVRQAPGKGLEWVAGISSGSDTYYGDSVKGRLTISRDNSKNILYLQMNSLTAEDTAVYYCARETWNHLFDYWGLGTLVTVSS VL: SYELTQPPSVSVSPGQTARITCSGGDYYSTYYAWYQQKPGQAPVTVIHSDDKRPSDIPERFSGSSSGTTVTLTISGVQAEDEADYYCGGYDGRTYINTFGGGTKLTVL', 0.000353),
  ('Hum1/AB66_HC_wt (antibody, V domains shown) VH: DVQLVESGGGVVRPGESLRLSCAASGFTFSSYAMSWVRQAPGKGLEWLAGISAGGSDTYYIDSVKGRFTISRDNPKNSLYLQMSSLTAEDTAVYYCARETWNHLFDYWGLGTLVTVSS VL: SYELTQPPSVSVSPGQTARITCSGGSYSSYYYAWYQQKPGQAPVTLIYSDDKRPSNIPERFSGSSSGTTVTLTISGVQAEDEADYYCGGYDQSSYTNPFGGGTKLTVL', 0.000239),
  ('Hum3/AB21_HC_wt (antibody, V domains shown) VH: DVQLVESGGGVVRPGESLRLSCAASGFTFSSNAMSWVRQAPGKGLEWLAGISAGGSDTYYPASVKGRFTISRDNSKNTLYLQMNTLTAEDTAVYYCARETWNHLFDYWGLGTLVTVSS VL: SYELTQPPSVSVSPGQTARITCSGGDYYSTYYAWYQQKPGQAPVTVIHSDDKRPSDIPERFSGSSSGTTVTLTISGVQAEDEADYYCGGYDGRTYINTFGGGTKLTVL', 0.000438),
  ('antibody 25 (antibody, V domains shown, also called AB25; S25) VH: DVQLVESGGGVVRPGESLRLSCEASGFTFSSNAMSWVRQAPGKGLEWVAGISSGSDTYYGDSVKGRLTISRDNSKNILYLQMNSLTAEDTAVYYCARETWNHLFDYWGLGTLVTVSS VL: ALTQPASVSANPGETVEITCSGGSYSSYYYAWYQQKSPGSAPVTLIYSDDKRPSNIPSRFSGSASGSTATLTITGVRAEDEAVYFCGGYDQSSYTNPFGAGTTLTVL', 0.000353),
  ('antibody 66 (antibody, V domains shown, also called AB66; S66) VH: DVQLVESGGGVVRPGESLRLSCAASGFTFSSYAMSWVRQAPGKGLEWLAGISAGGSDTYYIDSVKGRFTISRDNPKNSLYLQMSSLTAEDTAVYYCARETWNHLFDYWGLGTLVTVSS VL: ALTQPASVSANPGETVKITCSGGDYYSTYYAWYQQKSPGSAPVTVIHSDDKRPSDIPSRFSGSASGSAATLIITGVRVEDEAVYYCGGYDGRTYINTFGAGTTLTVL', 0.00281),
  ('Hum3/AB27_HC_wt (antibody, V domains shown) VH: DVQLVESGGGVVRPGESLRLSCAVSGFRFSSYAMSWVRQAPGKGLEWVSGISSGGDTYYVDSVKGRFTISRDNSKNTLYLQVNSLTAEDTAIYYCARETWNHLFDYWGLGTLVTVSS VL: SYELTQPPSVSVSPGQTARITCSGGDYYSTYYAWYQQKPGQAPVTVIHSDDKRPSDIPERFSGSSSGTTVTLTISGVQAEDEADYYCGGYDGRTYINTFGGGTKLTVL', 0.000396),
  ('Hum1/AB25_HC_wt (antibody, V domains shown) VH: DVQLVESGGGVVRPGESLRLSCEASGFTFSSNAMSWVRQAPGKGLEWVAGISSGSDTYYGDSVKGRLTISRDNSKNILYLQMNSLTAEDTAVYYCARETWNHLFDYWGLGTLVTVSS VL: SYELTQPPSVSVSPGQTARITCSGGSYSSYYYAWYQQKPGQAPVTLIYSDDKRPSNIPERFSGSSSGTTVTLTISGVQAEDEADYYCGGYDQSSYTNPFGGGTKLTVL', 0.000267),
  ('Hum1/AB21_HC_wt (antibody, V domains shown) VH: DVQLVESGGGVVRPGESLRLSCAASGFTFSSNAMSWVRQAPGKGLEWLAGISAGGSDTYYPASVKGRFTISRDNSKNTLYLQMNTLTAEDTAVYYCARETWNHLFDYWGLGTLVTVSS VL: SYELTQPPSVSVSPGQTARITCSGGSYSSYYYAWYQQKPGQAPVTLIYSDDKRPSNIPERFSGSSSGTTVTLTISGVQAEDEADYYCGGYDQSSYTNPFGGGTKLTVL', 0.000303);
